Experiment: gradient 5% acetonitrile 3 min, to 50% in 2 min, to 85% in 15 min, held 3 min, 100 µL/min
Conditions: column: Zorbax Extend-C18 2.1 x 50 mm; eluents: water / acetonitrile, 0.1% formic acid
ENDPOINT: RP-LC retention time (s)

Sample records with RP-LC retention time:
[
  {
    "COMPOUND": "Cc1ccc(-c2noc(CN3C(=O)C(C)Oc4ccccc43)n2)cc1C (stereo not given)",
    "READING": 1180
  },
  {
    "COMPOUND": "COc1ccc(-c2cn3c(CC(=O)Nc4ccccc4C(F)(F)F)csc3n2)cc1OC",
    "READING": 755
  },
  {
    "COMPOUND": "O=C(CCCN1CCN(Cc2ccc(F)cc2)C(=O)C1=O)NCc1ccc(F)cc1",
    "READING": 721
  }
]

a = Cc1nccn1-c1cc(N2CCC3(CC2)OCCO3)nc2ccnn12
b = CCCc1ccc(S(=O)(=O)N2CCC3(CC2)NCCN=C3NCc2cccc(C)c2)cc1
Input line: Pick one: a or b . Which one has the lower reported RP-LC retention time? Mark your selection by writing its label.
Output line: a
(a: 577 s, b: 870 s)

---

Assay: gradient 5% acetonitrile 3 min, to 50% in 2 min, to 85% in 15 min, held 3 min, 100 µL/min
Conditions: column: Zorbax Extend-C18 2.1 x 50 mm; eluents: water / acetonitrile, 0.1% formic acid
ENDPOINT: RP-LC retention time (s)

[
  {
    "COMPOUND": "Cc1ccc(Cc2c(C)nc3c(C(=O)NCCCN4CCOCC4)cnn3c2C)cc1",
    "READING": 684
  }
]

a = CCn1cnc(S(=O)(=O)N2CCC(C(=O)NCC(C)c3ccccc3)CC2)c1 (configuration not stated)
b = CCCN1C(=O)COc2ccc(-c3noc(-c4cccc(Br)c4)n3)cc21
Input line: Lab note: check whether a or b shows the higher recorded RP-LC retention time. Mark your selection by writing its label.
Output line: b
(b: 1400 s, a: 732 s)

---

Assay: gradient 5% acetonitrile 3 min, to 50% in 2 min, to 85% in 15 min, held 3 min, 100 µL/min
Details: column: Zorbax Extend-C18 2.1 x 50 mm; eluents: water / acetonitrile, 0.1% formic acid
ENDPOINT: RP-LC retention time (s)

[
  {
    "COMPOUND": "O=C(Nc1cccc(F)c1)N1C[C@H]2C[C@H](C1)[C@H]1CCCC(=O)N1C2",
    "UNITS_OF_MEASURE": "s",
    "RP-LC retention time": 660
  },
  {
    "COMPOUND": "O=C(CCc1nnc2ccc(N3CCCC3)nn12)N1CCN(c2ccccn2)CC1",
    "UNITS_OF_MEASURE": "s",
    "RP-LC retention time": 585
  },
  {
    "COMPOUND": "Cc1nnc(-c2coc(S(=O)(=O)N3CCN(c4ccccn4)CC3)c2)o1",
    "UNITS_OF_MEASURE": "s",
    "RP-LC retention time": 606
  }
]

P = COc1ccc(C2(C(=O)N3CCC(c4noc(-c5cccc(OC)c5)n4)CC3)CC2)cc1
Q = COc1ccc(-c2nnc(CC(=O)N3CCOCC3)o2)cc1
Input line: Lab note: check whether P or Q shows the higher recorded RP-LC retention time. Mark your selection by writing its label.
Output line: P

A = Cc1ccc(-c2nnc(Cc3nc(-c4ccc(Br)cc4)no3)o2)cc1F
B = CCn1cc(CC(=O)NC(C)c2ccc(F)cc2)c2cccnc21 (stereo not drawn)
Input line: Pick one: A or B . Which one has the lower reported RP-LC retention time? Mark your selection by writing its label.
Output line: B
(B: 732 s, A: 1220 s)

1 = CCN1CCCn2cc(S(=O)(=O)NCc3ccc(OC)cc3)cc2C1=O
2 = COc1ccc(-c2nnc(COc3cccc(NC(=O)c4nn(C)c5ccccc45)c3)o2)cc1
Input line: Pick one: 1 or 2 . Which one has the lower reported RP-LC retention time? Mark your selection by writing its label.
Output line: 1

a = Cc1ccc(-n2c(N3CCCC(C(=O)NCCCc4ccccc4)C3)nc3ccsc3c2=O)cc1 (stereo not drawn)
b = COCCN1C(=O)c2ccccc2C(C(=O)NCCCN2CCCCC2)C1c1cccs1 (stereo not drawn)
Input line: Lab note: check whether a or b shows the higher recorded RP-LC retention time. Mark your selection by writing its label.
Output line: a
